# Tested on: PC-3 prostate
# ASSAY_INFO: NCI tumour cell line growth inhibition, 48 h
Would you mind labelling by TGI? At or over 40 µM is 1, under is -1.

Recorded results for 2 compounds are shown here.
Threshold query (TGI >= 40 µM) on `Clc1nc(Cl)c2ncn(Cc3cccc(COc4cccc(OCc5cccc(Cn6cnc7c(Cl)nc(Cl)nc76)c5)c4)c3)c2n1`
1

In plain terms: is recorded TGI at least 40 µM for COC(=O)C1C2OC(C)(C)OC2CN1S(=O)(=O)c1ccc(C)cc1 (stereo not given) ?
1

API: the following record is the query input.
Is the recorded value of TGI equal to or greater than 40 µM for this compound? `CC/C=C\C[C@@H]1C/C=C2/C(=O)C=C[C@H]2C/C=C\CCCC(=O)O1`
-1
